Origin of values: PubChem BioAssay

# ASSAY_SYSTEM: Concanavalin-A (Canavalia ensiformis) (UniProt P02866)
# Sequence (P02866 whole entry, looked up): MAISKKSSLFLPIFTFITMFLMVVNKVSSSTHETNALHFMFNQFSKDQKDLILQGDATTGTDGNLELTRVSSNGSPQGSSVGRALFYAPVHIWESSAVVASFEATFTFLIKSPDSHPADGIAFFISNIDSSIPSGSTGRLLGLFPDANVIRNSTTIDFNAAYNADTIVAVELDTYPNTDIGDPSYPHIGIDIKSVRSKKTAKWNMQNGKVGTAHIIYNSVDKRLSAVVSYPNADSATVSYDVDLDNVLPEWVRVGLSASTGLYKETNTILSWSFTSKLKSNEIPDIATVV
# METHOD_SUMMARY: ConA small-molecule binders, primary screen, artefact control for SMM control protein annotation, biochemical, small-molecule microarray, Alexa647 label, 635 nm (AID 1127)
# SETTINGS: ConA-A647 binding fluorescence, higher = more signal
Assign Satisfied whenever composite z-score does not fall below 0.3; assign Not satisfied whenever it does.

• Cc1ccc(C(C)CC(O)C2C=CC3C(=O)N(c4ccccc4)C(=O)C3N2Nc2ccc(C(C)C)cc2)o1 (stereo not drawn) = Satisfied
• CC(C)CCC[C@@H](C)[C@H]1CC[C@@]2(C)C3=C(CC[C@]12C)[C@@]1(C)CC[C@H](OC(=O)c2ccc(Br)cc2)C(C)(C)C1CC3 (stereo partly drawn) = Not satisfied
• COc1ccc([Si](C)(C)[C@H]2[C@H](CCn3cc([C@H](O)c4ccccc4)nn3)O[C@@]3(C(=O)N(Cc4ccc(N5CCC5=O)cc4)c4ccccc43)[C@@H]2C)cc1 = Satisfied
• CCCCC(CC)C(O)C1C=CC2C(=O)N(c3ccccc3)C(=O)C2N1Nc1ccc([N+](=O)[O-])cc1 (stereo not drawn) = Satisfied
• O=C(O)[C@H](Cc1ccccc1)n1cc(-c2ccccn2)nn1 = Satisfied
• COc1cc(CO)cc(I)c1O[C@H]1C=C(C(=O)NCCO)C[C@@H](NCc2ccccc2F)[C@@H]1O = Satisfied
• O=C1O[C@@H](c2ccccc2)[C@@H](c2ccccc2)N2[C@@H](c3ccccc3OCCO)[C@]3(C(=O)Nc4ccccc43)[C@@H](C(=O)NC[C@H](O)c3ccccc3)[C@H]12 = Not satisfied
• O=C1c2ccccc2[C@](Cc2ccccc2I)(C(=O)NCCN2CCOCC2)[C@H](c2ccc(CO)cc2)N1Cc1ccccc1 = Satisfied
• CN(C)CCCCNC(=O)[C@H]1C[C@H]2C(=O)N3CCC[C@H]3C(=O)N2[C@H]1c1ccc(O)cc1 = Not satisfied
• Cc1ccc(S[C@]2(C(=O)NCc3ccccc3)CC(=O)N(C(C)C)[C@@H]2c2ccc(CO)cc2I)cc1 = Not satisfied
• Cc1ccc(F)cc1S(=O)(=O)N[C@@H]1CCN(Cc2ccc(OC(C)C)cc2)C1 = Not satisfied
• O=C1O[C@@H](c2ccccc2)[C@@H](c2ccccc2)N2[C@@H](c3ccc(O)cc3)[C@]3(C(=O)Nc4ccc(C#CCCO)cc43)[C@@H](C(=O)Nc3nc4ccccc4s3)[C@H]12 = Satisfied
• C[n+]1ccc(CCCO)cc1 = Not satisfied
• Cc1ccc(S[C@]2(C(=O)O)CC(=O)N(Cc3ccccc3Cl)[C@@H]2c2ccc(CO)cc2)cc1 = Not satisfied
• CCOc1cc(C(O)C2C=CC3C(=O)N(C4CCCCC4)C(=O)C3N2Nc2ccc(OC)cc2)ccc1O (stereo not drawn) = Satisfied
• CC(=O)N1Cc2ccccc2C[C@]2(N=C(c3ccc(OCCCO)cc3)O[C@@H]2c2ccccc2)C1=O = Satisfied
• C=C(C(=O)CC[C@H](OC(=O)c1cccnc1)c1ccc(CO)o1)C(C)C = Satisfied
• COc1ccc([Si](C)(C)[C@@H]2[C@@H](CCO)O[C@]3(C(=O)N(Cc4cccc(N5C(=O)c6ccccc6Oc6ccccc65)c4)c4ccccc43)[C@H]2C)cc1 = Not satisfied
• COc1ccc(CCNC(=O)[C@@]2(Sc3ccc(C)cc3)CC(=O)N(Cc3cc(C(F)(F)F)cc(C(F)(F)F)c3)[C@@H]2c2ccc(CO)cc2I)cc1 = Satisfied
• CN(C)CCCNC(=O)[C@@]1(C)c2ccccc2C(=O)N(Cc2cc(C(F)(F)F)cc(C(F)(F)F)c2)[C@H]1c1ccc(CO)cc1 = Not satisfied
• C=C(COC)/C(=C/C[C@@H](OC(=O)c1ccncc1)c1cccc(OCCO)c1)c1cnc2ccccc2c1 = Satisfied
• CO[C@H]1O[C@H](CO)[C@@H](OC(=O)Nc2ccccc2-c2ccccc2)[C@H](OC(=O)Nc2ccc3c(c2)OCO3)[C@@H]1OC(=O)Nc1ccc2c(c1)OCO2 = Satisfied
• C=CCOC(=O)[C@H]1[C@@H]2C(=O)O[C@@H](c3ccccc3)[C@@H](c3ccccc3)N2[C@@H](c2ccc(OCCOC(=O)[C@H]3C[C@H]4C(=O)N[C@@H](CCCC[N+](C)(C)C)C(=O)N4[C@H]3c3cccc(OCCO)c3)cc2)[C@]12C(=O)Nc1ccc(I)cc12 = Satisfied
• CO[C@H]1O[C@H](CO)[C@@H](OC(=O)Nc2ccc(C(F)(F)F)cc2)[C@H](OC(=O)Nc2ccc3c(c2)OCO3)[C@H]1OC(=O)Nc1ccc2c(c1)OCO2 = Satisfied
• CC1CC/C=C\[C@H]2OC34C=CCN(c5ccc6ccccc6c5)C(=O)[C@H]3N(C(CO)C(C)C)C(=O)[C@@H]4C2C(=O)O1 (stereo partly drawn) = Not satisfied
• O=C1O[C@@H](c2ccccc2)[C@@H](c2ccccc2)N2[C@@H](c3ccccc3OCCO)[C@]3(C(=O)Nc4ccc(C#CCCO)cc43)[C@@H](C(=O)Nc3nc4ccccc4s3)[C@H]12 = Satisfied
• COc1cc(OC)c(C(O)C2C=CC3C(=O)N(c4ccccc4)C(=O)C3N2Nc2ccc(C#N)cc2)cc1Br (stereo not drawn) = Satisfied
• C=C(CCCC)/C(=C/C[C@@H](OC(C)=O)c1ccc(CO)o1)c1cc(C(=O)OC)ccc1OC = Satisfied
